Source of measurements: the supplement of paper PMC10307832

# Tested on: HARA
# Test Summary: relative viability (nuclei count vs DMSO), 5 days (fraction); higher = more cells survive
# Assay Conditions: first compound 0.1265 µM
Measurement Name: relative viability

// below: answered compounds
Compound: O=C(O)c1ccc(-c2c[nH]c3ncc(-c4ccccc4)cc23)cc1C1CCCC1 + CC(=O)c1c(C)c2cnc(Nc3ccc(N4CCNCC4)cn3)nc2n(C2CCCC2)c1=O [Palbociclib] (partner 0.5 µM)
relative viability: 0.267

Compound: O=C(O)c1ccc(-c2c[nH]c3ncc(-c4ccccc4)cc23)cc1C1CCCC1 + CC1(C)CCC(c2ccc(Cl)cc2)=C(CN2CCN(c3ccc(C(=O)NS(=O)(=O)c4ccc(N[C@H](CCN5CCOCC5)CSc5ccccc5)c(S(=O)(=O)C(F)(F)F)c4)cc3)CC2)C1 [Navitoclax] (partner 0.5 µM)
relative viability: 1.14

// for each compound in input: emit relative viability
1. O=C(O)c1ccc(-c2c[nH]c3ncc(-c4ccccc4)cc23)cc1C1CCCC1 + Cc1nc(Nc2ncc(C(=O)Nc3c(C)cccc3Cl)s2)cc(N2CCN(CCO)CC2)n1 [Dasatinib] (partner 0.075 µM)
2. O=C(O)c1ccc(-c2c[nH]c3ncc(-c4ccccc4)cc23)cc1C1CCCC1 + Nc1ncn([C@H]2C[C@H](O)[C@@H](CO)O2)c(=O)n1 [Decitabine] (partner 2 µM)
3. O=C(O)c1ccc(-c2c[nH]c3ncc(-c4ccccc4)cc23)cc1C1CCCC1 + CC(C)C[C@H](NC(=O)[C@H](Cc1ccccc1)NC(=O)c1cnccn1)B(O)O [Bortezomib] (partner 0.002 µM)
4. O=C(O)c1ccc(-c2c[nH]c3ncc(-c4ccccc4)cc23)cc1C1CCCC1 + Cc1nc(NC(=O)N2CCC[C@H]2C(N)=O)sc1-c1ccnc(C(C)(C)C(F)(F)F)c1 [Alpelisib] (partner 2 µM)
5. O=C(O)c1ccc(-c2c[nH]c3ncc(-c4ccccc4)cc23)cc1C1CCCC1 + NC(=O)Nc1cc(-c2cccc(F)c2)sc1C(=O)N[C@H]1CCCNC1 [AZD7762] (partner 0.2 µM)

OUTPUT:
0.294
0.643
1.28
0.988
0.596

* * *

# System: LOU-NH91
# Test Summary: relative viability (nuclei count vs DMSO), 5 days (fraction); higher = more cells survive
# Assay Conditions: first compound 0.03162 µM
So basically, if relative viability comes in under 0.8 it's true (1), and if it's 0.8 or more it's false (0).

Compound: NC(=O)Nc1cc(-c2cccc(F)c2)sc1C(=O)N[C@H]1CCCNC1 [AZD7762] + COc1cccc2cc(-c3nc([C@H]4CC[C@H](C(=O)O)CC4)n4ncnc(N)c34)[nH]c12 [OSI-027] (partner 0.5 µM)
Assigned Label: true (1)

Compound: NC(=O)Nc1cc(-c2cccc(F)c2)sc1C(=O)N[C@H]1CCCNC1 [AZD7762] + COc1cc2c(Oc3ccc(NC(=O)C4(C(=O)Nc5ccc(F)cc5)CC4)cc3F)ccnc2cc1OCCCN1CCOCC1 [Foretinib] (partner 0.25 µM)
Assigned Label: false (0)

Compound: NC(=O)Nc1cc(-c2cccc(F)c2)sc1C(=O)N[C@H]1CCCNC1 [AZD7762] + CCNC(=O)c1noc(-c2cc(C(C)C)c(O)cc2O)c1-c1ccc(CN2CCOCC2)cc1 [Luminespib] (partner 0.01 µM)
Assigned Label: true (1)

Now take the following compound into account.
INPUT: Check if relative viability falls below 0.8 for NC(=O)Nc1cc(-c2cccc(F)c2)sc1C(=O)N[C@H]1CCCNC1 [AZD7762] + C[C@]1(O)C[C@@H](c2nc(-c3ccc4ccc(-c5ccccc5)nc4c3)c3c(N)nccn32)C1 [Linsitinib] (partner 1 µM) .
OUTPUT: false (0)
